// provenance: PubChem BioAssay (Tox21)

Test: qHTS assay to identify small molecule antagonists of the androgen receptor (AR) signaling pathway using the MDA cell line in the presence of 0.5 nM R1881 - cell viability counter screen (AID 1259242); note: nearly all actives have a fitted effect of over 45% in size
Details: MDA-kb2 viability, CellTiter-Fluor protease fluorescence, 16 h; series mostly up to 92.4 µM
Inconclusive results are not listed. Active and inactive are the calls of the source. Calls come from the whole dose curve; as a rule, active = well fitted cell-killing curve with a large enough effect in the repeat runs; inconclusive = weak or mixed curves, or effect the other way; inactive = flat fitted curve, though single readings scatter.
Recorded Endpoint: viability change, negative = cytotoxic

Take a look at these entries with their results.
CC(=O)C(Cl)Cl    inactive
COc1cc(OC)nc(Sc2cccc(Cl)c2C(=O)O)n1    inactive
CCC1(c2ccccc2)C(=O)NC(=O)NC1=O    inactive
CCNc1nc(NC(C)C)nc(OC)n1    inactive
CC(C)(C)C(=O)C(Oc1ccc(Cl)cc1)n1cncn1 (configuration not stated)    inactive

Go through the items and report each one's viability change, negative = cytotoxic.
1. c1cc2c(c(N3CCNCC3)c1)OCCO2
2. N#CC(O)c1ccccc1 (configuration not stated)

### Response
inactive
inactive
